Target or test system: Sentrin-specific protease 1 (Homo sapiens)
Experimental details: blockers of SENP1 SUMO protease activity – biochemical, FRET, uHTS, primary screen (AID 624204);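 also: 0% = enzyme with DMSO and 100% = no enzyme wells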
Condition label: recombinant SENP1 catalytic domain, CyPet-SUMO1-YPet FRET cleavage; at 10 µM; stronger effect = higher value
Among all 360,000 compounds or so, about 770 (0.21%) were called active. Many of the other results were omitted from the sample, so actives are more common in it than they were.
Here the recorded inhibition is given for each entry.
Give your result in % as a bare value.

Consider the worked cases shown below.
| Compound | Measure unit | inhibition |
| --- | --- | --- |
| Cc1ccc(SC(=O)COc2ccc(C)c(C)c2)cc1 | % | 4.05 |
| C[C@H](C(=O)CC(=O)OC(C)(C)C)[C@H](O)c1ccc(C(F)(F)F)cc1 | % | 0.388 |
| O=C(CC1CCCCC1)Nc1c2c(nn1-c1ccc(F)cc1)CS(=O)(=O)C2 | % | -0.662 |

For the compound shown here, Cc1ccc(S(=O)(=O)n2cccc2CO)cc1 , give the reported inhibition.
-0.0494

For the compound shown here, CCOc1ccc(NS(=O)(=O)c2ccc(C(=O)NCC(c3ccccc3OC)N3CCCC3)cc2)cc1 (stereo not given) , give the reported inhibition.
-1.55

====

Here the recorded inhibition is given for each entry.
Target or test system: Sentrin-specific protease 1 (Homo sapiens)
Experimental details: blockers of SENP1 SUMO protease activity – biochemical, FRET, uHTS, primary screen (AID 624204);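 also: 0% = enzyme with DMSO and 100% = no enzyme wells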
Condition label: recombinant SENP1 catalytic domain, CyPet-SUMO1-YPet FRET cleavage; at 10 µM; stronger effect = higher value
Out of some 360,000 compounds screened, about 770 (0.21%) were called active. What follows is part of a selection rich in actives, with near analogues and random picks from the rest.
Give your result in % as a bare value.

| Compound | Target or test system | inhibition / % |
| --- | --- | --- |
| CCOc1ncccc1C(=O)OCC(=O)Nc1cccc(S(=O)(=O)N2CCCCCC2)c1 | Sentrin-specific protease 1 (Homo sapiens) | 2.06 |
| Cc1ccc(Cn2nnc3c(=O)[nH]c(C4CCN(S(=O)(=O)/C=C/c5ccccc5)CC4)nc32)cc1 | Sentrin-specific protease 1 (Homo sapiens) | -2.14 |
| COc1ccc(C=C2CCC3C(CCCC34OCCO4)C2=O)cc1 (configuration not stated) | Sentrin-specific protease 1 (Homo sapiens) | 0.924 |
| COc1cc(/C=C2\CCCc3c2nc2ccccc2c3C(=O)O)cc(Cl)c1O | Sentrin-specific protease 1 (Homo sapiens) | 54.9 |
| CCc1ccc2ncc(C(=O)c3ccccc3)c(N3CCOCC3)c2c1 | Sentrin-specific protease 1 (Homo sapiens) | -0.316 |
| CCCCCn1nnnc1-c1nc2cc3ccccc3cc2[nH]c1=O | Sentrin-specific protease 1 (Homo sapiens) | 70.6 |
| CC1(C)CN(c2ccc(-c3ccnc4ncnn34)cc2)C1=O | Sentrin-specific protease 1 (Homo sapiens) | -1.93 |
| Cn1nnnc1SCC(=O)Nc1ccccc1C(=O)NC1CC1 | Sentrin-specific protease 1 (Homo sapiens) | -4.1 |

For the compound shown here, COc1cccc(/C=N/NC(=O)c2[nH]nc3c2CCc2ccccc2-3)c1O , give the reported inhibition.
48.9

For the compound shown here, CCCCCn1nnnc1C1c2ccccc2C(=O)N1Cc1ccco1 (configuration not stated) , give the reported inhibition.
2.03

For the compound shown here, CC(=O)NCC(=O)N1CCC(n2nccc2NC(=O)CCCc2ccccc2)CC1 , give the reported inhibition.
0.687

For the compound shown here, CCCCn1c(-c2cccc(C)c2)nc2cc3[nH]c(=O)c(C(C)C)nc3cc21 , give the reported inhibition.
-46.9
